Cited source for all entries: the RNAGym collection of RNA variant scans (doi:10.7554/elife.80360)

B1: HDV Ribozyme (parent)
chain: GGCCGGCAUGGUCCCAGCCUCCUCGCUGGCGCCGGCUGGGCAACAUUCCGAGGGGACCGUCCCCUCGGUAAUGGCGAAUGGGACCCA

variants of: B1; assay: self-cleavage, relative activity (ratio to wild type); higher = more cleavage; co-transcriptional
Lab note: compare self-cleavage against 0.06. Equal or greater, write y. Smaller, write n.

                            sequence_string  discrete_label
0  GGUCGGCAUGGUCCCAGCCUCCUCGCUGGCGCCGGCUGGGCAACAUUCCGAGGGGACCGUCCCCUCGGUAAUGGCGAAUGCGACCCA               n
1  GGCCGGCAUGAUCCCAGCCUCCUCGCUGGCGCGGGCUGGGCAACAUUCCGAGGGGACCGUCCCCUCGGUAAUGGCGAAUGGGACCCA               n
2  GGCCGGCAUGGUCCCAGCCUCCUCGUUGGCGGCGGCUGGGCAACAUUCCGAGGGGACCGUCCCCUCGGUAAUGGCGAAUGGGACCCA               y
3  GGCCGGCAUGGUCCCAGCCUCCUCUCUGGCGCCGGCUGGGCAACAUUCCGAGGGGACCGUCCCCACGGUAAUGGCGAAUGGGACCCA               n
4  GGCCGGGAUGGUCCCAGCCUCCUCGCUGGCGCCGGCUGGGCAACAUUCCGAGGGGACCGUCCCCUCGGUAAUGGCGAAUGGGCCCCA               y
5  GGCCGGCAUGGUCCCAGCCUCCUCGCGGGCGUCGGCUGGGCAACAUUCCGAGGGGACCGUCCCCUCGGUAAUGGCGAAUGGGACCCA               y
6  GGCCGGCAUGGUCCCAGCCUCCUCGCUGGCGCCCGCUGGGCAACAUUCCGAGGGGAACGUCCCCUCGGUAAUGGCGAAUGGGACCCA               y
7  GGCCGGCAUGGUCCCAGCCUCCUCGCUUGCGCCGGCUGGGCAACAUUCCGAGGGUACCGUCCCCUCGGUAAUGGCGAAUGGGACCCA               y
